Recorded Plant response rating, Mustard, Wild for the following molecules
Tested on: mustard, wild (wild mustard, Sinapis arvensis)
Experiment: Test D controlled growth environment herbicide test, pre- and postemergence
Type: in vivo
Details: postemergence, 62 g ai/ha; scale 0 to 100, 0 no effect, 100 complete control
observable: Plant response rating, Mustard, Wild

molecule="C#CCOC(=O)Oc1c(C)nn(C)c(=O)c1-c1c(C)sc2ccc(C)cc12 [Compound 87]" observable="Plant response rating, Mustard, Wild" number=35
molecule="Cc1ccc(-c2c(O)c(Br)nn(C)c2=O)c2ccccc12 [Compound 52]" observable="Plant response rating, Mustard, Wild" number=75
molecule="COc1nn(C)c(=O)c(-c2c(C)ccc3ccccc23)c1OC(=O)OC(C)C [Compound 36]" observable="Plant response rating, Mustard, Wild" number=100
molecule="Cc1cc(C)c2sc(C)c(-c3c(OC(=O)OCCCl)c(C)nn(C)c3=O)c2c1 [Compound 85]" observable="Plant response rating, Mustard, Wild" number=25
molecule="CCC(=O)Oc1c(C)nn(C)c(=O)c1-c1c(C)sc2ccc(Cl)cc12 [Compound 109]" observable="Plant response rating, Mustard, Wild" number=85
molecule="Cc1nn(C)c(=O)c(-c2c(C)sc3ccc(Cl)cc23)c1O [Compound 104]" observable="Plant response rating, Mustard, Wild" number=75
molecule="COc1nn(C)c(=O)c(-c2c(C)ccc3ccccc23)c1O [Compound 54]" observable="Plant response rating, Mustard, Wild" number=100

---

Recorded Plant response rating, Velvetleaf for the following compounds
Test system: velvetleaf (Abutilon theophrasti)
Experiment: Test C greenhouse herbicide test, pre- and postemergence
Type: in vivo
Details: Preemergence, 31 g ai/ha; scale 0 to 100, 0 is no effect, 100 is complete control
observable: Plant response rating, Velvetleaf

structuresmiles=CC(=O)Oc1c(C)nn(C)c(=O)c1-c1ccc(F)c2ccccc12 systemtested="velvetleaf (Abutilon theophrasti)" number=85
structuresmiles=CCOC(=O)Oc1c(C)nn(C)c(=O)c1-c1c(C)sc2ccc(C)cc12 systemtested="velvetleaf (Abutilon theophrasti)" number=65
structuresmiles=COC(=O)Oc1c(C)nn(C)c(=O)c1-c1c(C)sc2c(C)cc(C)cc12 systemtested="velvetleaf (Abutilon theophrasti)" number=35
structuresmiles=CCC(=O)Oc1c(Cl)nn(C)c(=O)c1-c1c(C)sc2ccc(Cl)cc12 systemtested="velvetleaf (Abutilon theophrasti)" number=65
structuresmiles=COc1nn(C)c(=O)c(-c2c(C)ccc3ccccc23)c1OC(C)=O systemtested="velvetleaf (Abutilon theophrasti)" number=85

---

Tested on: wheat (winter wheat, Triticum aestivum)
Experiment: Test C greenhouse herbicide test, pre- and postemergence
Type: in vivo
Details: Postemergence, 250 g ai/ha; scale 0 to 100, 0 no effect, 100 complete control; 13 to 15 d
Recorded Plant response rating, Wheat for the following compounds
observable: Plant response rating, Wheat

structuresmiles=COC(=O)Oc1c(Br)nn(C)c(=O)c1-c1c(C)ccc2ccccc12 systemtested="wheat (winter wheat, Triticum aestivum)" number=95
structuresmiles=COc1nn(C)c(=O)c(-c2c(C)ccc3ccccc23)c1OC(=O)OC(C)C systemtested="wheat (winter wheat, Triticum aestivum)" number=5
structuresmiles=Cc1cc(C)c2ccccc2c1-c1c(OS(C)(=O)=O)c(C)nn(C)c1=O systemtested="wheat (winter wheat, Triticum aestivum)" number=5
structuresmiles=CCC(=O)Oc1c(C)nn(C)c(=O)c1-c1c(C)sc2c(C)cc(C)cc12 systemtested="wheat (winter wheat, Triticum aestivum)" number=5
structuresmiles=Cc1nn(C)c(=O)c(-c2cccc3ccc(C#N)cc23)c1O systemtested="wheat (winter wheat, Triticum aestivum)" number=30
structuresmiles=Cc1ccc(-c2c(O)c(Br)nn(C)c2=O)c2ccccc12 systemtested="wheat (winter wheat, Triticum aestivum)" number=0
structuresmiles=Cc1cc(C)c2ccccc2c1-c1c(O)cnn(C)c1=O systemtested="wheat (winter wheat, Triticum aestivum)" number=0
structuresmiles=CCCC(=O)Oc1c(C)nn(C)c(=O)c1-c1c(C)sc2c(C)cc(C)cc12 systemtested="wheat (winter wheat, Triticum aestivum)" number=5
structuresmiles=CC(=O)Oc1c(C)nn(C)c(=O)c1-c1ccc(F)c2ccccc12 systemtested="wheat (winter wheat, Triticum aestivum)" number=30
structuresmiles=Cc1nn(C)c(=O)c(-c2cc(F)cc3ccccc23)c1OS(C)(=O)=O systemtested="wheat (winter wheat, Triticum aestivum)" number=5
structuresmiles=CC(=O)Oc1c(C#N)nn(C)c(=O)c1-c1c(C)ccc2ccccc12 systemtested="wheat (winter wheat, Triticum aestivum)" number=30
structuresmiles=Cc1cc(C)c2sc(C)c(-c3c(OC(=O)OC(C)C)c(C)nn(C)c3=O)c2c1 systemtested="wheat (winter wheat, Triticum aestivum)" number=0
structuresmiles=COc1nn(C)c(=O)c(-c2c(C)ccc3ccccc23)c1O systemtested="wheat (winter wheat, Triticum aestivum)" number=0
structuresmiles=CC(=O)Oc1c(C)nn(C)c(=O)c1-c1c(C)sc2c(C)cc(C)cc12 systemtested="wheat (winter wheat, Triticum aestivum)" number=5

---

Test system: lambsquarters (Chenopodium album)
Test: Test E greenhouse herbicide test, pre- and postemergence
Assay type: in vivo
Details: Preemergence, 31 g ai/ha; scale 0 to 100, 0 no effect, 100 complete control
observable: Plant response rating, Lambsquarters

structuresmiles=Cc1ccc2sc(C)c(-c3c(O)c(C)nn(C)c3=O)c2c1 systemtested="lambsquarters (Chenopodium album)" result=65
structuresmiles=CCOC(=O)Oc1c(C)nn(C)c(=O)c1-c1c(C)sc2ccc(C)cc12 systemtested="lambsquarters (Chenopodium album)" result=98
structuresmiles=CC(=O)Oc1c(C)nn(C)c(=O)c1-c1c(C)sc2ccc(C)cc12 systemtested="lambsquarters (Chenopodium album)" result=98
structuresmiles=CC(=O)Oc1c(C)nn(C)c(=O)c1-c1c(C)sc2c(C)cc(C)cc12 systemtested="lambsquarters (Chenopodium album)" result=100
structuresmiles=CCC(=O)Oc1c(C)nn(C)c(=O)c1-c1c(C)sc2c(C)cc(C)cc12 systemtested="lambsquarters (Chenopodium album)" result=100

---

System: Russian thistle (Salsola kali)
Assay: Test D controlled growth environment herbicide test, pre- and postemergence
Format: in vivo
Conditions: Postemergence, 31 g ai/ha; scale 0 to 100 (0 no effect, 100 complete control)
observable: Russian Thistle plant response rating

structuresmiles=CCC(=O)Oc1c(C)nn(C)c(=O)c1-c1c(C)sc2ccc(Cl)cc12 systemtested="Russian thistle (Salsola kali)" number=60
structuresmiles=CC(=O)Oc1c(C)nn(C)c(=O)c1-c1c(C)sc2c(C)cc(C)cc12 systemtested="Russian thistle (Salsola kali)" number=65
structuresmiles=CCC(=O)Oc1c(C)nn(C)c(=O)c1-c1c(C)sc2c(C)cc(C)cc12 systemtested="Russian thistle (Salsola kali)" number=70
structuresmiles=CCOC(=O)Oc1c(C)nn(C)c(=O)c1-c1c(C)ccc2ccccc12 systemtested="Russian thistle (Salsola kali)" number=75
structuresmiles=CCOC(=O)Oc1c(C)nn(C)c(=O)c1-c1c(C)sc2ccc(C)cc12 systemtested="Russian thistle (Salsola kali)" number=65

---

System: oilseed rape (Brassica napus)
Assay: Test C greenhouse herbicide test, pre- and postemergence
Type: in vivo
Conditions: Preemergence, 62 g ai/ha; scale 0 to 100, 0 is no effect, 100 is complete control
Description: […]
observable: Plant response rating, Oilseed Rape

compound="CCC(=O)Oc1c(C)nn(C)c(=O)c1-c1c(C)sc2ccc(C)cc12 [Compound 42]" systemtested="oilseed rape (Brassica napus)" number=0
compound="CC(=O)Oc1c(C)nn(C)c(=O)c1-c1ccc(F)c2ccccc12 [Compound 90]" systemtested="oilseed rape (Brassica napus)" number=35
compound="COc1nn(C)c(=O)c(-c2c(C)ccc3ccccc23)c1OC(=O)OC(C)C [Compound 36]" systemtested="oilseed rape (Brassica napus)" number=60
compound="COC(=O)Oc1c(Br)nn(C)c(=O)c1-c1c(C)ccc2ccccc12 [Compound 137]" systemtested="oilseed rape (Brassica napus)" number=90
compound="CCOC(=O)Oc1c(C)nn(C)c(=O)c1-c1c(C)ccc2ccccc12 [Compound 73]" systemtested="oilseed rape (Brassica napus)" number=85
compound="CCC(=O)Oc1c(Cl)nn(C)c(=O)c1-c1c(C)sc2ccc(Cl)cc12 [Compound 111]" systemtested="oilseed rape (Brassica napus)" number=98
compound="Cc1cc(C)c2sc(C)c(-c3c(OC(=O)OC(C)C)c(C)nn(C)c3=O)c2c1 [Compound 67]" systemtested="oilseed rape (Brassica napus)" number=0

---

Recorded Plant response rating, Soybean for the following molecules
Tested on: soybean (Glycine max)
Assay: Test C greenhouse herbicide test, pre- and postemergence
Format: in vivo
Conditions: Preemergence, 62 g ai/ha; scale 0 to 100, 0 is no effect, 100 is complete control
observable: Plant response rating, Soybean

structuresmiles=CC(=O)Oc1c(Br)nn(C)c(=O)c1-c1c(C)ccc2ccccc12 number=0
structuresmiles=COc1nn(C)c(=O)c(-c2c(C)ccc3ccccc23)c1OC(=O)OC(C)C number=0
structuresmiles=CC(=O)Oc1c(C)nn(C)c(=O)c1-c1c(C)cc(C)c2ccccc12 number=10
structuresmiles=CC(=O)Oc1c(C)nn(C)c(=O)c1-c1c(C)sc2c(C)cc(C)cc12 number=0
structuresmiles=CC(=O)Oc1c(C)nn(C)c(=O)c1-c1c(C)sc2ccc(C)cc12 number=0
structuresmiles=CCOC(=O)Oc1c(C)nn(C)c(=O)c1-c1c(C)sc2ccc(C)cc12 number=100

Source: patent US10597388B2
